For each entry below, report its EC50 hGLP-1R value.
target_of_assay: human GLP-1 receptor (human, UniProt P43220 24-463)
experimental_details: cell-based or functional assay
Numbered stars: 1 amine (or outer) side, 2 acyl side, 3 side chain; on linkers, the order of the positions; unused ones are H or OH. Square brackets hold non-standard residues; d marks the D form. Side chains are listed from the residue outwards. Ends that are not written are not given here. * marks the point of attachment. γGlu = O=C(O)[C@H](CCC(=O)[*:2])N[*:1]; Palmitoyl = CCCCCCCCCCCCCCCC(=O)*; Aib = CC(C)(N)C(=O)O
Answers are plain numbers, in pM.

HXHGTFTSDLSKQKDEEAARLFIEWLKAGGPSSGAPPPS (D-Ser at 2; Lys 14 side chain K(γE-γE-x53) = (S)-4-Carboxy-4-((S)-4-carboxy-4-hexadecanoylamino-butyrylamino)-butyryl-; C-terminal amide) [SEQ ID NO: 29] :: 0.9
HXHGTFTSDLSKQKEEEAARLFIEWLKAGGPSSGAPPPS (D-Ser at 2; Lys 14 side chain K(γE-γE-x53) = (S)-4-Carboxy-4-((S)-4-carboxy-4-hexadecanoylamino-butyrylamino)-butyryl-; C-terminal amide) [SEQ ID NO: 30] :: 0.8
H-HSQGTFTSDLSKQK([γGlu-γGlu-Palmitoyl])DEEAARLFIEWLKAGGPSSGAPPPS-NH2 [SEQ ID NO: 33] :: 1

Go through the items and report each one's EC50 hGLP-1R.
1. H[dS]HGTFTSDLSKQK([γGlu-γGlu-Palmitoyl])DEEAARLFIEWL[Aib]AGGPSSGAPPPS-NH2 [SEQ ID NO: 7]
2. HXQGTFTSDLSKQKDEEAARLFIEWLKAGGPSSGAPPPS (D-Ser at 2; Lys 14 side chain K(γE-γE-x53) = (S)-4-Carboxy-4-((S)-4-carboxy-4-hexadecanoylamino-butyrylamino)-butyryl-; C-terminal amide) [SEQ ID NO: 32]
3. HXQGTFTSDLSKQKDEEAARLFIEWLXAGGPSSGAPPPS (D-Ser at 2; Lys 14 side chain K(γE-γE-x53) = (S)-4-Carboxy-4-((S)-4-carboxy-4-hexadecanoylamino-butyrylamino)-butyryl-; Aib at 27; C-terminal amide) [SEQ ID NO: 9]

result:
1. 1.5
2. 1.9
3. 1.8
